# log10 of cAMP Rel EC50, nM (1% HSA) listing for each entry below
# TGT: hGLP-1R (Homo sapiens, UniProt P43220)
# Sequence (P43220 24-463): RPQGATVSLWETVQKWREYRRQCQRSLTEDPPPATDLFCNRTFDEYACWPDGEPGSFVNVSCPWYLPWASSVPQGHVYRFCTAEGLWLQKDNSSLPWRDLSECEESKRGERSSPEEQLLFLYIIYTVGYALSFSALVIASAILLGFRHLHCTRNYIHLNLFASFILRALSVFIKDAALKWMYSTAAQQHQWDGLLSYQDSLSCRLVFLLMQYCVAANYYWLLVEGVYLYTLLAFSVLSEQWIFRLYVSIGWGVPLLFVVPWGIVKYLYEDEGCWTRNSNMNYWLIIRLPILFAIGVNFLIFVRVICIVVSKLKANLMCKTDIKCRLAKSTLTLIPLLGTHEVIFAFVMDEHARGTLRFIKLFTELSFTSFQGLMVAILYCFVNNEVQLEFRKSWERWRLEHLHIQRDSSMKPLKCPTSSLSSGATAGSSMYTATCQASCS
# TEST_PROTOCOL: cell-based or functional assay
Non-standard residues stand in square brackets, D forms with d. No end group written: not given here. αMePhe(2-F) = C[C@](N)(Cc1ccccc1F)C(=O)O; Aib = CC(C)(N)C(=O)O
Heads up: the numbers are on a log10 scale; they represent cAMP Rel EC50, nM (1% HSA) in nM.

Please review the entries below; each comes with its answer.
[[record]]
binder = "YXQGTFTSDXSXXLDKKAQXAFIEXLIAGGPSSGAPPPEGS (non-natural residues (Aib, 4Pal, Orn, Me4Pal, αMeY); lipidated K; amide; synthetic construct; SITE 2: note = 2-Aminoisobutyric Acid; SITE 10: note = 3-(4-Pyridyl)-L-alanine; SITE 12: note = L-ornithine; SITE 13: note = alpha-methyl-leucine; SITE 17: note = Lysine is chemically modified through conjugation of the epsilon-amino group of the Lysine side chain with (gamma-Gl)) [Example 1015]"
readout_name = "log10 of cAMP Rel EC50, nM (1% HSA)"
test_result = 1.97

[[record]]
binder = "YXQGTFTSDXSXXLDKKAQXAFIEXLIEXGPSSGEPPPSGSE (non-natural residues; Lys acylated AEEA-(γGlu)2-C18 diacid; C-terminal amide; synthetic construct; SITE 2: note = 2-Aminoisobutyric Acid; SITE 10: note = 3-(4-Pyridyl)-L-alanine; SITE 12: note = L-ornithine; SITE 13: note = alpha-methyl-leucine; SITE 17: note = Lysine is chemically modified through conjugation of the epsilon-amino group of the Lysine side chain with (2-[2-(2-) [Example 988]"
readout_name = "log10 of cAMP Rel EC50, nM (1% HSA)"
test_result = 2.87

[[record]]
binder = "YXQGTXTSDXXIXLDXKAQXXFIEXLLEGGPSSGEPPPE (synthetic construct; SITE 2: note = 2-Aminoisobutyric Acid; SITE 6: note = alpha-methyl-2-fluoro-L-phenylalanine; SITE 10: note = 3-(4-Pyridyl)-L-alanine; SITE 11: note = alpha-methyl-L-serine; SITE 13: note = alpha-methyl-leucine; SITE 16: note = L-ornithine; SITE 17: note = Lysine is chemically mo) [Example 377]"
readout_name = "log10 of cAMP Rel EC50, nM (1% HSA)"
test_result = 1.47


What does the record list as log10 of cAMP Rel EC50, nM (1% HSA) for YXQGTFTSDXSQXLDKKAQXAFIEYLIEXGESSGAPPPSGS (acylated; synthetic construct; SITE 2: note = 2-Aminoisobutyric Acid; SITE 10: note = 3-(4-Pyridyl)-L-alanine; SITE 13: note = alpha-methyl-leucine; SITE 17: note = Lysine is chemically modified through conjugation of the epsilon-amino group of the Lysine side chain with (2-[2-(2-Amino-ethoxy)-ethoxy]-acetyl)) [Example 226] ?
2.55

Entry Y[Aib]QGT[αMePhe(2-F)]TSDYSKILDKIAQKAFIEYLIEGGPSSGAPPPSEG-NH2 (not fully specified (residue 20)) [Example 355] has what log10 of cAMP Rel EC50, nM (1% HSA)?
2.55
